experiment: small-molecule microarray binders of probe aXIP, primary screen, biochemical, NeuroSMM set, 635/667 nm fluorescence (AID 1119); conditions: higher = more signal, called active from +8 up or from −8 down;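 further: probe is the protein aXip251-270 applied at 1 µg/mL to compound-printed slides; binding of probe to printed compounds measured as 667 nm fluorescence plus signal to noise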
recorded-endpoint: composite Z-score
// return a plain number; no unit text

Solved cases (2 shown):
molecule	composite Z-score
C=CC[C@@H]1C=C[C@H](ON=C2c3cc(OC)ccc3O[C@H](c3cccc(OC)c3)[C@H]2O)[C@@H](CO)O1	0.196
CCCNC(=O)[C@@H]1c2ccccc2C(=O)N(c2ccc(C)cn2)[C@H]1c1ccc(CO)cc1	-0.207

composite Z-score for COCCOC(=O)N1C(=O)[C@@]2(c3cc(C#CCNC(N)=O)ccc31)[C@H](c1ccc(O)cc1)N1[C@H](c3ccccc3)[C@H](c3ccccc3)OC(=O)[C@H]1[C@@H]2C(=O)N1CCCCCCC1 is -0.624

According to the records, this molecule CCOC(=O)[C@H](Cc1ccccc1)NC(=O)CCC1CC(OC(=O)NCc2ccc3c(c2)OCO3)CC2(CCCC(COC(=O)NCC(c3ccccc3)c3ccccc3)O2)O1 (stereo partly specified) displays composite Z-score of -0.718

Sample COC(=O)[C@H](C)NC(=O)CCC1CC(OC(=O)NCc2ccc3c(c2)OCO3)CC2(CCCC(COC(=O)NCCOc3ccccc3)O2)O1 (stereo partly specified) ; composite Z-score observed: 0.794

response.value for CO[C@@H]1COC(=O)CC=C[C@@H](C)[C@@H]2C=C[C@H](O)[C@@H](COC(=O)CCC[C@H]1C)O2 (field: composite Z-score) = 0.135

---

assay: E. coli acrAB mutant growth effects, primary screen, E. coli filamentation inducers, strain DRC39, OD650, 48 h (AID 1179);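 further: screen aims at cell division blockers that make cells filament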; details: E. coli DRC39 delta-acrAB growth, higher = more signal, called active from +8 up or from −8 down
Calls of active or inactive are those of the source.
recorded-endpoint: z-score

In [3]: df
Out[3]:
                                   compound     observed_value
0  O=C1c2ccccc2[C@@]2(Cc3ccccc3N(C3CC3)C2=O)[C@H](c2ccc(CO)cc2)N1Cc1ccccc1C(F)(F)F  -0.136 (inactive)
1  C#CCCCON=C1C[C@@H](O)[C@@H](O)[C@@H]2[C@@H]3C(=O)N(Cc4ccccc4)C(=O)[C@@H]3CC[C@H]12  -0.923 (inactive)
2  CC(CCN1CCCCc2nc(C)c(C)cc21)=NOC(C)CN1CCCc2nc(C)c(C)cc21 (stereo not given)  -0.936 (inactive)
3  CCCCC(=C=CC[C@H](O)c1ccccc1OCCO)C[C@H](O)COCc1ccccc1  0.0347 (inactive)

Below: the item to evaluate.
Noted for CC(C)=CCCC(C)=CCON=C1[C@H]2CCn3c(=O)n(Cc4cc5c(cc4Cl)OCO5)c(=O)n3[C@H]2[C@H](O)[C@@H]2O[C@H]12 : its z-score reads -0.72 (inactive)

---

system: XIP peptide (Xip251-270); test: small-molecule binders of XIP peptide, primary screen, biochemical, small-molecule microarray, fluorescence 635/667 nm, 0.5 µg/mL protein (AID 1183); conditions: small-molecule microarray binding, fluorescence 635 nm; higher = more signal
recorded-endpoint: composite z-score
Please give only the number in your answer, with no unit.

Record excerpt, results attached:
In [3]: df
Out[3]:
                                 mol_smiles              assay_system  observed_value
0  COc1ccc(CCNC(=O)[C@@H]2c3ccccc3C(=O)N(c3ccc(C)cn3)[C@H]2c2ccc(CO)cc2)cc1  XIP peptide (Xip251-270)           0.843
1  CO[C@@H]1COC(=O)CCC[C@@H](C)[C@H](OC)COC(=O)CCC[C@H]1C  XIP peptide (Xip251-270)           0.201

// compound CC(C)C[C@@H]1NC(=O)[C@H]2C[C@@H](C(=O)NCCCCCCN(C)C)[C@@H](c3cccc(OCCO)c3)N2C1=O , assay XIP peptide (Xip251-270), composite z-score value: 0.905

---

system: XIP peptide (Xip251-270) binding; assay: small-molecule binders of XIP peptide, primary screen, biochemical, small-molecule microarray, fluorescence 635/667 nm, 0.1 µg/mL protein (AID 1182); conditions: fluorescent protein binding, 635 nm, higher = more signal, called active from +8 up or from −8 down
Lab note: anything with composite z-score at or over 0.2 counts as criterion met; the rest go in criterion not met.

Use the examples below as a reference point.
In [3]: df
Out[3]:
                                 mol_smiles   class_assignment
0  CCOC(=O)NN=C1C[C@@H](O)[C@@H](O)[C@@H]2[C@@H]3C(=O)N(C[C@@H]4CCCO4)C(=O)[C@@H]3CC[C@@H]12  criterion not met
1  CC(C)OC(=O)C=C1C[C@@H](c2ccc(C#N)cc2)O[C@@H](c2ccc(C#N)cc2)O1      criterion met
2  CC[C@@H](c1ccccc1)n1c(=O)n2n(c1=O)[C@H]1[C@H](O)[C@@H]3O[C@@H]3C(=NOCC=C(C)CCC=C(C)C)[C@H]1CC2  criterion not met

[ask] Confirm if composite z-score reported for the compound Cc1cc2c(c(=O)o1)[C@H](O)[C@H]1O[C@H]1C2=O is 0.2 or above.
[reply] criterion met

[ask] Please indicate if the recorded composite z-score for CC(C)=C1C(=O)C(c2ccccc2)=C2CN3C(=O)N(CCc4ccccc4)C(=O)[C@]3(Cc3ccc(F)cc3)[C@H]21 meets or exceeds 0.2.
[reply] criterion not met

[ask] Test whether the compound O=C1[C@H]2[C@H]3[C@H](O)[C@H](O)CC(=NOCc4ccccc4)[C@@H]3CC[C@H]2C(=O)N1Cc1ccccc1 records composite z-score of 0.2 or higher.
[reply] criterion not met

---

In this section we review reported composite z-score values for a set of compounds.
target: Dickkopf-related protein 1 (Homo sapiens) (UniProt O94907); experiment: DKK1 binders on small-molecule microarrays, primary screen, biochemical, small-molecule microarray, 635 nm fluorescence scan (AID 1106); details: DKK1 binding, higher = more signal;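 further: score merges emission near 667 nm with signal to noise over three replicate slides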
Sequence (O94907 whole entry, looked up): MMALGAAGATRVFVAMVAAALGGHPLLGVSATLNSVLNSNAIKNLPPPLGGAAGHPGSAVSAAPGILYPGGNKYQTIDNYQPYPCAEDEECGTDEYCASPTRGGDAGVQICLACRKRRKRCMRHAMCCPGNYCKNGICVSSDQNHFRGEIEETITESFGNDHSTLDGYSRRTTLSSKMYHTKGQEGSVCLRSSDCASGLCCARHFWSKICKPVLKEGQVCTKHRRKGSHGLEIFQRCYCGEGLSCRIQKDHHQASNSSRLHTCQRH
Number, no unit, nothing else.

Consider the following illustrative entries.
compound	recorded-endpoint	observed-value
COCCOC(=O)N1C(=O)[C@@]2(c3cc(C#CC4(O)CCCCCC4)ccc31)[C@H](c1ccc(OCCO)cc1)N1[C@H](c3ccccc3)[C@H](c3ccccc3)OC(=O)[C@H]1[C@@H]2C(=O)NC[C@H](O)c1ccccc1	composite z-score	0.208
O=C1[C@H]2[C@H]3[C@H](O)[C@H](O)CC(=NOC[C@@H](O)COCc4ccco4)[C@H]3CC[C@H]2C(=O)N1Cc1ccc2c(c1)OCO2	composite z-score	1.39
COCCOC(=O)N1C(=O)[C@@]2(c3cc(C#Cc4ccc(OC)cc4)ccc31)[C@H](C(=O)N1CCN(c3ncccn3)CC1)[C@H]1C(=O)O[C@H](c3ccccc3)[C@H](c3ccccc3)N1[C@@H]2c1ccc(OCCO)cc1	composite z-score	1.19
NC(=O)NCC#Cc1ccc2c(c1)[C@]1(C(=O)N2)[C@H](c2ccc(O)cc2)N2[C@H](c3ccccc3)[C@H](c3ccccc3)OC(=O)[C@H]2[C@@H]1C(=O)N1CCCCCCC1	composite z-score	0.408
O=C1[C@H]2[C@H]3[C@H](O)[C@H](O)CC(=NOCc4ccccc4)[C@@H]3CC[C@H]2C(=O)N1C1CCCCC1	composite z-score	-0.484
CC(C)NC(=O)[C@@]1(c2ccc([N+](=O)[O-])cc2)CC(=O)N(CC23CC4CC(CC(C4)C2)C3)[C@@H]1c1ccc(CO)cc1I	composite z-score	0.208
CO[C@H]([C@@H](C)[C@H](OC)c1ccccc1)[C@H](C)[C@@H](OC)[C@H](C)C(C)=O	composite z-score	0.345
O=C1[C@H]2[C@H]3[C@H](O)[C@H](O)CC(=NO[C@@H]4O[C@H](CO)[C@@H](O)[C@H](O)[C@H]4O)[C@@H]3CC[C@H]2C(=O)N1Cc1ccc2c(c1)OCO2	composite z-score	0.921

compound CN1C(=O)C2C=CC(C(O)C(c3ccccc3)c3ccccc3)N(NC(=O)OC(C)(C)C)C2C1=O (stereo not drawn) , composite z-score observed: 0.452

Lab note: measured composite z-score of COC(=O)[C@]1(CO)N=C(c2ccc(OCCCO)cc2)O[C@@H]1c1ccccc1N=[N+]=[N-] was 0.356

The compound CCN(CC)c1ccc(N2CC=CC34O[C@@H]5/C=C\CCC(C)OC(=O)C5[C@H]3C(=O)N(CCCO)[C@@H]4C2=O)cc1 (stereo partly drawn) showed composite z-score equal to -0.492

// COc1ccc(-c2nc3c(c4c2C[C@H](C)OC4)CN(CCC(C)C)CC3)cc1 : composite z-score value = 0.388

Given item CN(C)CCCNC(=O)[C@@H]1c2ccccc2C(=O)N(Cc2cc(F)cc(C(F)(F)F)c2)[C@H]1c1ccc(CO)cc1 , the value recorded as its composite z-score is 0.0959
